conditions: in isopropanol, 278.15 K
Measured quantity: solubility (mole fraction)

Can you look up the measured solubility (mole fraction) of Nc1nc(Cl)c2[nH]cnc2n1 for me?
5.99e-05

---

conditions: in water, 308.15 K
Measured quantity: solubility (mole fraction)
No unit in the answer, please; the number alone is enough.

Can you look up the measured solubility (mole fraction) of Nc1nc(Cl)c2[nH]cnc2n1 for me?
2.26e-05

---

details: in isopropanol, 283.15 K
Measured quantity: solubility (mole fraction)
Format: numeric value only, no unit, no commentary.

Which measured solubility (mole fraction) value corresponds to Nc1nc(Cl)c2[nH]cnc2n1 ?
7.43e-05
